B1: glmS ribozyme (parent)
chain: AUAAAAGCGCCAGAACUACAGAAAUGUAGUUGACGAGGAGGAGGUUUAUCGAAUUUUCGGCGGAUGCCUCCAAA

Variants of: B1
experimental-protocol: self-cleavage kobs at 10000 uM GlcN6P; higher = faster cleavage; RNA array
condition-set: with glucosamine-6-phosphate
Variants at the floor of the assay were thinned out.
parameter: self-cleavage kobs at 10000 uM GlcN6P (s⁻¹)
Reply numerically in s⁻¹, unit not repeated.

Query :: What measured self-cleavage kobs at 10000 uM GlcN6P goes with G41A U46A ?
Result :: 0.000462

Query :: Same question, U45A U56A this time
Result :: 0.0179

Query :: Same for U47A A48G
Result :: 6.69e-05

Query :: What do you get for U45A C58A ?
Result :: 0.000803

Query :: Please answer likewise for A6G U31C
Result :: 5.58e-05

Query :: Would you kindly repeat that for A52G U56A ?
Result :: 0.00102

Query :: And then G51U U69G , what is it?
Result :: 1.72e-05
